- Test system: Pseudomonas aeruginosa ATCC 27853
- Assay type: cell-based
- RECORDED CONDITIONS: ATCC 27853
- Procedure: MICs of the lipopeptides (trifluoroacetic acid salt, TFA) were determined by broth microdilution in cation-adjusted Mueller-Hinton broth (CAMHB) (Oxoid Australia, Thebarton, SA, Australia) according to the Clinical and Laboratory Standards Institute protocol (Clinical and Laboratory Standards Institute, Performance standards for antimicrobial susceptibility testing; twentyforth informational supplement M100-S24. Wayne, Pa., 2014). Polymyxin B sulphate was employed as the control. […]
Where a SMILES comes first, the peptide text is derived from it. Bridges are numbered along the chain shown (N, C = ends). [ ]: non-standard residue; d: D form. The star is where a group is joined. Quinoline3carbonyl = O=C(c1cnc2ccccc2c1)*; X22 = Cn1c(C(=O)*)cc2ccccc21; X1 = O=C(c1ncc(Cl)cc1Cl)*; Dab = NCC[C@H](N)C(=O)O; Abu = CC[C@H](N)C(=O)O; Dap = NC[C@H](N)C(=O)O
ASSAY METRIC: Minimum inhibitory concentration (µg/mL)
# number only, unit µg/mL dropped from output

Solved cases below.
{"COMPOUND": "CC[C@@H]1NC(=O)[C@@H](CC(C)C)NC(=O)[C@H](CCN)NC(=O)[C@@H](NC(=O)[C@H](CN)NC(=O)[C@@H](NC(=O)[C@H](CCN)NC(=O)c2cnc3ccccc3c2)[C@@H](C)O)CCNC(=O)[C@H]([C@@H](C)O)NC(=O)[C@H](CCN)NC(=O)[C@H](CCN)NC1=O [Compound 52] (Quinoline3carbonyl-[Dab]T[Dap][Dab][Dab][dL][Abu][Dab][Dab]T; lactam 4-C)", "EXPERIMENTAL TARGET": "Pseudomonas aeruginosa ATCC 27853", "Minimum inhibitory concentration / µg/mL": 0.5}
{"COMPOUND": "CC(C)C[C@H]1NC(=O)[C@H](CCN)NC(=O)[C@@H](NC(=O)[C@H](CN)NC(=O)[C@@H](NC(=O)[C@H](CCN)NC(=O)c2ncc(Cl)cc2Cl)[C@@H](C)O)CCNC(=O)[C@H]([C@@H](C)O)NC(=O)[C@H](CCN)NC(=O)[C@H](CCN)NC(=O)[C@H](C(C)C)NC1=O [Compound 13] (X1-[Dab]T[Dap][Dab][Dab][dL]V[Dab][Dab]T; lactam 4-C)", "EXPERIMENTAL TARGET": "Pseudomonas aeruginosa ATCC 27853", "Minimum inhibitory concentration / µg/mL": 0.5}

Prompt: Value lookup for Minimum inhibitory concentration; key = CC(C)C[C@H]1NC(=O)[C@H](CCN)NC(=O)[C@@H](NC(=O)[C@H](CN)NC(=O)[C@@H](NC(=O)[C@H](CCN)NC(=O)c2cc3ccccc3n2C)[C@@H](C)O)CCNC(=O)[C@H]([C@@H](C)O)NC(=O)[C@H](CCN)NC(=O)[C@H](CCN)NC(=O)[C@H](C)NC1=O [Compound 65] (X22-[Dab]T[Dap][Dab][Dab][dL]A[Dab][Dab]T; lactam 4-C)
Response: 0.5

---

- Tested on: Acinetobacter baumannii FADDI-AB030
- EXPERIMENTAL PROTOCOL: microbe, parasite or virus in culture
- Type: cell-based
- RECORDED CONDITIONS: FADDI-AB030
Where a SMILES comes first, the peptide text is derived from it. Bridges are numbered along the chain shown (N, C = ends). [ ]: non-standard residue; d: D form. The star is where a group is joined. X21 = O=C(c1cnc(Cl)cc1Cl)*; X36 = O=C(c1ncc(Br)cc1Br)*; X26 = CCc1ccc(C(=O)*)cn1; Dab = NCC[C@H](N)C(=O)O; Abu = CC[C@H](N)C(=O)O; Dap = NC[C@H](N)C(=O)O
Below: a set of entries, each annotated with reported Minimum inhibitory concentration.
# number only, unit mg/L dropped from output

Solved cases below.
{"COMPOUND": "CCc1ccc(C(=O)N[C@@H](CCN)C(=O)N[C@H](C(=O)N[C@@H](CN)C(=O)N[C@H]2CCNC(=O)[C@H]([C@@H](C)O)NC(=O)[C@H](CCN)NC(=O)[C@H](CCN)NC(=O)[C@H](CC)NC(=O)[C@@H](CC(C)C)NC(=O)[C@H](CCN)NC2=O)[C@@H](C)O)cn1 [Compound 41] (X26-[Dab]T[Dap][Dab][Dab][dL][Abu][Dab][Dab]T; lactam 4-C)", "EXPERIMENTAL TARGET": "Acinetobacter baumannii FADDI-AB030", "RESULT UNIT": "mg/L", "Minimum inhibitory concentration": 2}
{"COMPOUND": "CC[C@@H]1NC(=O)[C@@H](CC(C)C)NC(=O)[C@H](CCN)NC(=O)[C@@H](NC(=O)[C@H](CN)NC(=O)[C@@H](NC(=O)[C@H](CCN)NC(=O)c2cnc(Cl)cc2Cl)[C@@H](C)O)CCNC(=O)[C@H]([C@@H](C)O)NC(=O)[C@H](CCN)NC(=O)[C@H](CCN)NC1=O [Compound 2] (X21-[Dab]T[Dap][Dab][Dab][dL][Abu][Dab][Dab]T; lactam 4-C)", "EXPERIMENTAL TARGET": "Acinetobacter baumannii FADDI-AB030", "RESULT UNIT": "mg/L", "Minimum inhibitory concentration": 2}

Continue with the compound presented below.
Prompt: Value lookup for Minimum inhibitory concentration; key = CC(C)C[C@H]1NC(=O)[C@H](CCN)NC(=O)[C@@H](NC(=O)[C@H](CN)NC(=O)[C@@H](NC(=O)[C@H](CCN)NC(=O)c2ncc(Br)cc2Br)[C@@H](C)O)CCNC(=O)[C@H]([C@@H](C)O)NC(=O)[C@H](CCN)NC(=O)[C@H](CCN)NC(=O)[C@H]([C@@H](C)O)NC1=O [Compound 29] (X36-[Dab]T[Dap][Dab][Dab][dL]T[Dab][Dab]T; lactam 4-C)
Response: 1
